Reported pIC50 is given for each of the following compounds.
System: HCT-116 cells
assay.text: Test for inhibiting sphere-forming ability of cancer cells
Format: cell-based
experimental.setup: Homo sapiens, 96 h; HCT-116 spheres, non-adherent, serum-free, 4 days, CellTiter-Glo; read-out: IC50 (Sphere IC50 value; concentration for 50% inhibition of cell proliferation)
pIC50: −log10 of the molar value.

structure.smiles	censoring.sign	pIC50
O=C(Nc1cn(Cc2ccc(F)c(Cl)c2)cn1)c1ccc2c(c1)CCNC2	=	7.10
O=C(Nc1ccc2c(c1)CCNC2)c1cn(Cc2cc(F)c(F)c(F)c2)cn1	=	6.18
O=C(Nc1cn(Cc2cccc(C(F)(F)F)c2)cn1)c1ccc2c(c1)CCC1(C2)OCCO1	=	5.15
O=C(Nc1cn(Cc2cccc(C(F)(F)F)c2)cn1)c1cc2c(s1)CNCC2	=	6.21
O=C(Nc1cn(Cc2cc(F)c(F)c(F)c2)cn1)c1cc2c(cc1F)CNCC2	=	6.41
O=C(Nc1cc2c(cn1)CNCC2)c1cn(Cc2ccc(F)c(F)c2)cn1	=	7.10
O=C(Nc1cn(Cc2cc(Cl)cc(Cl)c2)cn1)c1ccc2c(c1)CCNC2	=	7.15
O=C(Nc1cn(Cc2ccc(Cl)c(C(F)(F)F)c2)cn1)c1cnc2c(c1)CCNC2	>	8.00

----------
Tested on: HCT-116 cells
assay.text: Test for inhibiting sphere-forming ability of cancer cells
Format: cell-based
experimental.setup: HCT-116 spheres, non-adherent, serum-free, 4 days, CellTiter-Glo; read-out: IC50 (Sphere IC50 value; concentration for 50% inhibition of cell proliferation)
pIC50: −log10 of the molar value.
Assign criterion met whenever pIC50 does not fall below 6; assign criterion not met whenever it does.

structure.smiles	group.label
O=C(Nc1cn(Cc2ccccc2)cn1)c1cnc2c(c1)CCNC2	criterion met
O=C(Nc1cn(CC2CCCCC2)cn1)c1ccc2c(c1)CCNC2	criterion met
O=C(Nc1cn(CCC2CCCCC2)cn1)c1ccc2c(c1)CCNC2	criterion met
O=C(Nc1cn(Cc2cccc(F)c2)cn1)c1ccc2c(c1)CCNC2	criterion met
O=C(Nc1cn(Cc2ccccc2C(F)(F)F)cn1)c1ccc2c(c1)CCNC2	criterion not met
O=C(Nc1cn(CC2CCCCC2)cn1)c1cnc2c(c1)CCNC2	criterion met
N#Cc1cccc(Cn2cnc(NC(=O)c3cnc4c(c3)CCNC4)c2)c1	criterion not met
Cc1cccc(Cn2cnc(NC(=O)c3ccc4c(c3)CCNC4)c2)c1	criterion met
O=C(Nc1cn(Cc2cccc(F)c2)cn1)c1cnc2c(c1)CCNC2	criterion met
O=C(Nc1cn(Cc2ccc(Cl)cc2)cn1)c1ccc2c(c1)CCNC2	criterion met
O=C(Nc1cn(CCCOc2ccccc2)cn1)c1cnc2c(c1)CCNC2	criterion not met
O=C(Nc1cn(Cc2cc(F)cc(F)c2)cn1)c1ccc2c(c1)CCNC2	criterion met
COc1ccc(Cn2cnc(NC(=O)c3ccc4c(c3)CCNC4)c2)cc1	criterion not met
O=C(Nc1cn(CCOc2ccccc2)cn1)c1cnc2c(c1)CCNC2	criterion not met
O=C(Nc1cn(Cc2ccc(OC(F)(F)F)cc2)cn1)c1ccc2c(c1)CCNC2	criterion met
O=C(Nc1cn(Cc2ccc(F)cc2)cn1)c1cnc2c(c1)CCNC2	criterion met
Cc1cccc(Cn2cnc(NC(=O)c3cnc4c(c3)CCNC4)c2)c1	criterion met
Cc1ccccc1Cn1cnc(NC(=O)c2cnc3c(c2)CCNC3)c1	criterion met
O=C(Nc1cn(Cc2ccccc2F)cn1)c1ccc2c(c1)CCNC2	criterion not met
COc1cccc(Cn2cnc(NC(=O)c3ccc4c(c3)CCNC4)c2)c1	criterion met
N#Cc1cccc(Cn2cnc(NC(=O)c3ccc4c(c3)CCNC4)c2)c1	criterion not met
O=C(Nc1cn(CCC2CCCCC2)cn1)c1cnc2c(c1)CCNC2	criterion met
O=C(Nc1cn(Cc2cc(F)c(F)c(F)c2)cn1)c1ccc2c(c1)CCNC2	criterion met
COc1cccc(Cn2cnc(NC(=O)c3cnc4c(c3)CCNC4)c2)c1	criterion met
Cc1ccc(Cn2cnc(NC(=O)c3cnc4c(c3)CCNC4)c2)cc1	criterion met
O=C(Nc1cn(Cc2ccc(F)c(F)c2)cn1)c1ccc2c(c1)CCNC2	criterion met
O=C(Nc1cn(Cc2ccc(F)cc2)cn1)c1ccc2c(c1)CCNC2	criterion met

----------
Reported IC50 is given for each of the following compounds.
Tested on: HCT-116 cells
assay.text: Test for inhibiting sphere-forming ability of cancer cells (in the presence of BSA)
Format: cell-based
experimental.setup: Homo sapiens, HCT-116, 96 h, HCT-116 spheres, non-adherent, 5% BSA, 4 days, CellTiter-Glo; read-out: IC50 (Sphere IC50 value; concentration for 50% inhibition of cell proliferation)

compound	target.or.system	endpoint.unit	IC50
O=C(Nc1cn(Cc2cc(Cl)cc(OC(F)(F)F)c2)cn1)c1ccc2c(c1)CCNC2 [Example 100]	HCT-116 cells	nM	70
O=C(/C=C/c1ccc2c(c1)CCO2)Nc1cn(Cc2cccc(Cl)c2)cn1 [Example 41]	HCT-116 cells	nM	20
O=C(Nc1cn(Cc2cc(F)c(F)c(F)c2)cn1)c1cc(F)c2c(c1)CCNC2 [Example 5]	HCT-116 cells	nM	60
O=C(Nc1cn(Cc2cccc(C(F)(F)F)c2)cn1)c1ccc2c(c1)CCNC2 [Example 26]	HCT-116 cells	nM	100
O=C(/C=C/c1ccc2c(c1)OC(F)(F)O2)Nc1cn(Cc2cccc(Cl)c2)cn1 [Example 40]	HCT-116 cells	nM	70
O=C(Nc1cn(Cc2cccc(C(F)(F)F)c2)cn1)c1ccc2c(n1)CCNC2 [Example 10]	HCT-116 cells	nM	50
O=C(Nc1cn(Cc2ccc(Cl)c(F)c2)cn1)c1ccc2c(c1)CCNC2 [Example 90]	HCT-116 cells	nM	100
O=C(Nc1cc2c(cc1F)CNCC2)c1cn(Cc2ccc(F)c(F)c2)cn1 [Example 2]	HCT-116 cells	nM	490

----------
System: HCT-116 cells
assay.text: Test for inhibiting sphere-forming ability of cancer cells
Type: cell-based
experimental.setup: Homo sapiens, 96 h; HCT-116 spheres, non-adherent, serum-free, 4 days, CellTiter-Glo; read-out: IC50 (Sphere IC50 value; concentration for 50% inhibition of cell proliferation)
pIC50: −log10 of the molar value. Structures can show the parent of a compound that is named as a salt.
Reported pIC50 is given for each of the following compounds.
attribute.measured: pIC50

compound	attribute.measured	measured.value
CC1(C)CNCc2ccc(C(=O)Nc3cn(Cc4cccc(C(F)(F)F)c4)cn3)cc21	pIC50	4.14
O=C(Nc1cn(Cc2cc(F)cc(C(F)(F)F)c2)cn1)c1ccc2c(c1)CCNC2	pIC50	7.22
CC(=O)N1CCc2cc(C(=O)Nc3cn(Cc4cccc(C(F)(F)F)c4)cn3)ccc2C1 [Example 108, trifluoroacetate]	pIC50	5.18
O=C(Nc1cn(Cc2ccc3ccccc3c2)cn1)c1ccc2c(c1)CCNC2	pIC50	5.38
O=C(Nc1cn(Cc2cccc(C(F)(F)F)c2)cn1)c1ccc2c(c1F)CCNC2	pIC50	6.44
Cc1ccc(Cn2cnc(NC(=O)c3ccc4c(c3)CCNC4)c2)cc1C(F)(F)F	pIC50	7.15
O=C1Nc2cc(C(=O)Nc3cn(Cc4cccc(C(F)(F)F)c4)cn3)cnc2CO1	pIC50	6.28
O=C(Nc1cn(Cc2ccc(Cl)c(F)c2)cn1)c1ccc2c(c1)CCNC2	pIC50	7.15
Cc1nc(NC(=O)c2ccc3c(c2)CCNC3)cn1Cc1cccc(C(F)(F)F)c1	pIC50	6.70
O=C(Nc1cn(Cc2ccc(F)c(C(F)(F)F)c2)cn1)c1cnc2c(c1)CCNC2	pIC50	7.22
O=C(Nc1cn(Cc2cc(F)c(F)c(F)c2)cn1)c1ccc2c(c1)CCNC2	pIC50	7.22
O=C(Nc1cn(Cc2ccc(F)c(C(F)(F)F)c2)cn1)c1ccc2c(c1)CCNC2	pIC50	7.15
Cc1c(NC(=O)c2ccc3c(c2)CCNC3)ncn1Cc1cccc(C(F)(F)F)c1	pIC50	5.21
O=C(Nc1cn(Cc2cccc(C(F)(F)F)c2)cn1)c1ccc2c(n1)CCNC2	pIC50	7.40
O=C(Nc1cn(Cc2cccc(C(F)(F)F)c2)cn1)c1ccc2c(c1)CNCC2	pIC50	6.17
O=C(/C=C/c1ccc2c(c1)OCCO2)Nc1cn(Cc2cccc(Cl)c2)cn1	pIC50	6.04
O=C(Nc1cn(Cc2ccc(C(F)(F)F)cc2)cn1)c1cnc2c(c1)CCNC2	pIC50	7.05
O=C(/C=C/c1ccc2c(c1)CCO2)Nc1cn(Cc2cccc(Cl)c2)cn1	pIC50	8.00
O=C(Nc1cn(Cc2cc(Cl)cc(OC(F)(F)F)c2)cn1)c1ccc2c(c1)CCNC2	pIC50	7.22
O=C(Nc1cn(Cc2cccc(Cl)c2)cn1)c1cnc2c(c1)CCNC2	pIC50	6.14
O=C(Nc1cn(Cc2cc(F)c(F)c(F)c2)cn1)c1cc(F)c2c(c1)CCNC2	pIC50	7.15
O=C(Nc1cn(Cc2cccc(Oc3ccccc3)c2)cn1)c1ccc2c(c1)CCNC2	pIC50	7.15
O=C(Nc1cn(Cc2ccc(Cl)cc2)cn1)c1cnc2c(c1)CCNC2	pIC50	7.10
O=C(Nc1cn(Cc2cccc(C(F)(F)F)c2)cn1)c1cc2c(cn1)CNCC2	pIC50	7.15
CN1CCc2cc(C(=O)Nc3cn(Cc4cccc(C(F)(F)F)c4)cn3)ccc2C1	pIC50	5.21
O=C(Nc1cn(Cc2ccc(C(F)(F)F)o2)cn1)c1ccc2c(c1)CCNC2	pIC50	6.21
O=C(Nc1cn(Cc2cccc(Cl)c2)cn1)c1ccc2c(c1)CCNC2	pIC50	6.09
O=C(Nc1cn(Cc2cccc(C(F)(F)F)c2)cn1)c1ccc2c(c1)CCNC2	pIC50	7.10
O=C(Nc1cn(Cc2cccc(C(F)(F)F)c2)cn1)c1nc2c(s1)CCNC2	pIC50	4.19
O=C(Nc1cc2c(cn1)CNCC2)c1cn(Cc2cc(F)c(F)c(F)c2)cn1	pIC50	7.22
O=C(Nc1cn(Cc2cccc(C(F)(F)F)c2)cn1)c1ccc2c(c1)CCCN2	pIC50	6.16
COc1cc(Cn2cnc(NC(=O)c3ccc4c(c3)CCNC4)c2)cc(C(F)(F)F)c1	pIC50	6.30
O=C(Nc1cn(Cc2cccc(Oc3ccccc3)c2)cn1)c1cnc2c(c1)CCNC2	pIC50	7.30
O=C(Nc1cn(Cc2cc(F)c(F)c(F)c2)cn1)c1ccc2c(n1)CCNC2	pIC50	7.30
